Source: ChEMBL document CHEMBL4513216

- Tested on: Plasmodium berghei
- protocolDetails: Screen against P. berghei liver stage (PbLuc), transformed with Luciferase, at 10uM
- Type: functional, HepG2
- experimentalContext: tested at 10 uM
Among all 69,000 compounds or so, about 8,600 (12%) showed an effect of 50% or more. For the sample, strong results were picked, then their nearest neighbours and some compounds at random.
Label 1 (yes) when INHIBITION is strictly below 30%; at or above that, label 0 (no).

molecule	label
O=C1CC[C@H]2[C@H](CCN2C(=O)N2CCCC2)N1Cc1ccncc1	0 (no)
c1cc(-c2cnccn2)cc(-c2ccn(CCN3CCCCC3)n2)c1	1 (yes)

Query molecule follows.
QUERY: Below 30% on INHIBITION? Entry `Cc1cnc(C)c(-c2cccc(-c3ccn(CCN4CCCC4)n3)c2)n1`
RESULT: 0 (no)

====

- Tested on: Plasmodium berghei
- protocolDetails: Screen against P. berghei liver stage (PbLuc), transformed with Luciferase, at 10uM
- Format: functional, HepG2
- experimentalContext: tested at 10 uM
Out of some 69,000 compounds screened, about 8,600 (12%) showed an effect of 50% or more. For the sample, strong results were picked, then their nearest neighbours and some compounds at random.
property: INHIBITION (%)
Answers are plain numbers, in %.

// worked examples, INHIBITION included
molecule	INHIBITION, %
CCS(=O)(=O)CCNC(=O)[C@@]12CNC[C@@H]1CN(C1CCCC1)C2	30.8
COCC(O)CN(C)C(=O)NCc1ccc(S(C)(=O)=O)cc1 (stereo not drawn)	29.4

Now turn to the next molecule.
QUERY: Find the recorded INHIBITION belonging to CN(CC1(CO)CCC1)C(=O)C1CCC(=O)N(Cc2ccc(Cl)cc2)C1 (stereo not drawn) and report it.
RESULT: 49

====

- Test system: Plasmodium berghei
- protocolDetails: Screen against P. berghei liver stage (PbLuc), transformed with Luciferase, at 10uM
- Format: functional, HepG2
- experimentalContext: tested at 10 uM
Screen size: about 69,000 compounds; about 8,600 (12%) showed an effect of 50% or more. The list comes from a sample in which strong results are over-represented; it also holds close analogues and randomly drawn compounds.
For each entry below, report its INHIBITION value.
Answers are plain numbers, in %.

molecule	system	measureUnit	recordedValue
Cn1c2c(c(=O)c3ccccc31)CCC(C)(C)O2	Plasmodium berghei	%	-27.3
N[C@@H]1CCCN(C(=O)Cc2c[nH]c3ccccc23)[C@H]1c1ccccc1F	Plasmodium berghei	%	32.5
CCc1cc(CNC(=O)N2CCN(c3nc(C)c(C)s3)CC2)on1	Plasmodium berghei	%	32.4
Cc1nn(CCc2nnc(NCC(C)C)s2)c(C)c1Br	Plasmodium berghei	%	7.38
Cc1nnc(NC(=O)CN2CCc3c(nc(C(C)C)n3C)C2)s1	Plasmodium berghei	%	17.3
COc1nccnc1-c1cc(NC2CCCC2)nc2[nH]ccc12	Plasmodium berghei	%	60
CCOc1ccccc1CC(=O)N1C[C@H](C2CC2)[C@@H](N)C1	Plasmodium berghei	%	2.66
Cc1cnc(CNC(=O)[C@@]23CCO[C@@H]2CCN(c2ncccn2)C3)cn1	Plasmodium berghei	%	9.51
COc1ncc(-c2cc(NC3CCCC3)nc3[nH]ccc23)c(OC)n1	Plasmodium berghei	%	66.7
COCCC(=O)NCc1ccc(-c2ccccc2C(=O)O)cn1	Plasmodium berghei	%	5.23

The following molecules each have a reported value; give each one's INHIBITION.
1. CCS(=O)(=O)N1CCCC(n2nnn(-c3ccccc3)c2=O)C1 (stereo not given)
2. CCn1cc(S(=O)(=O)N2CCCC3(CC=CNC3=O)C2)cn1 (stereo not given)
3. Cc1ccc(S(=O)(=O)N2CCc3ccc(F)cc32)cc1C(=O)O
4. O=C(NCC1CC1)C1CSCN1S(=O)(=O)c1cc(F)cc(F)c1 (stereo not given)
5. O=C(Nc1ccccc1F)C1=NN(c2ccccc2)C(=O)CN1

RESULT:
-8.5455
28.5
-3.2
27.7
-73.1

====

- Test system: Plasmodium berghei
- protocolDetails: Screen against P. berghei liver stage (PbLuc), transformed with Luciferase, at 10uM
- Assay type: functional, HepG2
- experimentalContext: tested at 10 uM
The campaign covered roughly 69,000 compounds. About 8,600 (12%) showed an effect of 50% or more. What follows is part of a selection rich in strong results, with near analogues and random picks from the rest.
For each entry below, report its INHIBITION value.
Answers are plain numbers, in %.

// worked examples, INHIBITION included
molecule	measureUnit	INHIBITION
CN(C)C(=O)N1CC2(CCNCC2)c2cc(F)ccc21	%	-15.5
Cc1ccc(CN2C[C@H](C(=O)N3CCCCO3)[C@@H]3CCO[C@@H]3C2)o1	%	-12.1
CCN(CC)Cc1cc(C(=O)N2CCC3(CC2)NCCNC3=O)c(C)o1	%	12.4
Cc1ccc(CN2CC[C@H]3OCC[C@@H](C(=O)N4CCCCO4)[C@@H]3C2)o1	%	61.5
O=C(c1ccco1)N1CC2(CCNCC2)c2cc(Cl)ccc21	%	51.9

The following molecules each have a reported value; give each one's INHIBITION.
1. O=C([C@@H]1CSCN1)N1CC2(CCNCC2)c2cc(Cl)ccc21
2. Cc1cnc2n1CCN(C)C21CCN(CC2CC2)CC1
3. O=C([C@@H]1CCO[C@@H]2CCN(CC3CC3)C[C@H]21)N1CCCC1

RESULT:
1: 38.5; 2: 12.1; 3: 57.5

The following molecules each have a reported value; give each one's INHIBITION.
1. O=C1NCCCC12CCN(Cc1ccc(-c3ccccc3)s1)C2 (stereo unspecified)
2. O=C1Cc2cc(NC(=O)N3CCCN(Cc4cccs4)CC3)ccc2N1

RESULT:
1. 21.2
2. 42.7

The following molecules each have a reported value; give each one's INHIBITION.
1. Cc1c(CN2CCCC(n3c(=O)oc4ccccc43)C2)cnn1C (stereo unspecified)
2. O=C(Nc1ccc2c(c1)OCCO2)N1CCCN(Cc2cccs2)CC1
3. O=C1NCCN(CC2CC2)C12CCN(Cc1ccco1)CC2
4. Cc1ccc(Sc2ccc(CN3CCC4(CC3)NCCNC4=O)o2)cc1
5. Cc1cc(O)cc(=O)n1CCCC(=O)Nc1n[nH]c2ccccc12
6. CC(C)CN1CC[C@H]2OCC[C@@H](C(=O)N3CCCO3)[C@@H]2C1

RESULT:
1. 35.75
2. -14.1
3. 45.5
4. 66.1
5. 9.96
6. 47.9

====

- System: Plasmodium berghei
- protocolDetails: Screen against P. berghei liver stage (PbLuc), transformed with Luciferase, at 10uM
- Type: functional, HepG2
- experimentalContext: tested at 10 uM
Hit rate of the full screen: of about 69,000 compounds, about 8,600 (12%) showed an effect of 50% or more. What follows is part of a selection rich in strong results, with near analogues and random picks from the rest.
Kindly note that classification relies on INHIBITION with these boundaries: low bracket: < 20%; middle bracket: ≥ 20% and < 40%; high bracket: ≥ 40%

// known answers, use as guide
compound	system	label
CCC(=O)N1CCN(S(=O)(=O)c2cccc(F)c2)[C@H]2CS(=O)(=O)C[C@H]21	Plasmodium berghei	middle bracket
c1cnn(Cc2nnc3n2CCCN(Cc2ccsc2)C3)c1	Plasmodium berghei	middle bracket

QUERY: Form: Item = `CCNC(=O)[C@@H]1C[C@@H](N)CN1C(=O)CCc1ccc(C)c(C)c1` ; Class = ?
RESULT: low bracket

QUERY: Queued: CN1C(=O)CC(C(=O)O)C12CCN(Cc1ccc(Cl)c(Cl)c1)CC2 (stereo not drawn)
RESULT: low bracket

QUERY: Queued: CN1CCCC(c2cccc(-c3cccc(C(F)(F)F)c3)n2)C1 (stereo not drawn)
RESULT: high bracket

QUERY: Queued: `CCC(=O)N1CCN(C(=O)Nc2cccc(C#N)c2)[C@H]2CS(=O)(=O)C[C@H]21`
RESULT: low bracket

QUERY: Queued: O=C1NCCN2CCN(Cc3ccc(Cl)c(Cl)c3)CC12 (stereo not drawn)
RESULT: high bracket

QUERY: Queued: O=C1NCC2=Nc3ccccc3NC(c3ccccc3)C12 (stereo not drawn)
RESULT: low bracket

QUERY: Queued: `Cc1noc(NCc2cn(C)nc2-c2cccnc2)n1`
RESULT: high bracket

QUERY: Queued: `Nc1nc(CN2CCN(c3nccs3)CC2)cs1`
RESULT: middle bracket

QUERY: Queued: `CCNC(=O)[C@@H]1C[C@H](N)CN1Cc1ccc(Sc2ccc(C)cc2)o1`
RESULT: high bracket

====

- Test system: Plasmodium berghei
- protocolDetails: Screen against P. berghei liver stage (PbLuc), transformed with Luciferase, at 10uM
- Type: functional, HepG2
- experimentalContext: tested at 10 uM
The whole screen tested about 69,000 compounds, of which about 8,600 (12%) showed an effect of 50% or more. Only a selection was taken, and strong results are over-represented in it overall.
property: INHIBITION (%)
Numbers only, in %.

// worked examples, INHIBITION included
compound	recordedValue
COC(=O)[C@H]1C[C@@H](O)CCN1S(=O)(=O)c1ccc(F)cc1F	34.2
Cc1noc(C)c1CN1CCC(N(C)Cc2nnc(C3CC3)n2C)C1 (stereo not given)	19.2
O=C1CC2(CCN(Cc3ccc(-c4ccccc4)s3)C2)C(=O)N1 (stereo not given)	21.2
Cc1cc(NC(=O)CNC(C)(C)c2nc(C)c(C)s2)no1	26.6
COCC(c1cccc(C(F)(F)F)c1)N(C)C(=O)c1cc(C)no1 (stereo not given)	-16.4

The following compounds each have a reported value; give each one's INHIBITION.
1. CCc1nc(C)c(C(=O)NCCNC(=O)Cc2cccc(F)c2)s1
2. CCSCCC(C)N(C)C(=O)c1ccc(C)o1 (stereo not given)
3. O=C(CCCN1CCCCC1)N1CCC(c2nnc[nH]2)CC1

RESULT:
[-27.9, 85.2, -7.53]

The following compounds each have a reported value; give each one's INHIBITION.
1. CC(C(=O)N1CCCC1)n1nc(-c2cccs2)cc(N)c1=O (stereo not given)
2. COCCN1CCN(C(=O)C(c2cccc(F)c2)N(C)C)CC1 (stereo not given)
3. Cc1cc(NC(=O)CCNC(C)(C)c2nc(C)c(C)s2)no1
4. CC(C)CC(CC(C)C)NC(=O)c1ccn(C)c(=O)c1

RESULT:
1. 11.8
2. 41.5
3. 53.8
4. 1.51

The following compounds each have a reported value; give each one's INHIBITION.
1. CCSCCC(C)N(C)C(=O)c1cc(C)on1 (stereo not given)
2. Cc1cc(NC(=O)NC(C)(C)c2nc(C)c(C)s2)no1
3. CN1C(=O)CO[C@H]2CCN(C(=O)Cc3ccc4c(c3)CCCC4)CC[C@@H]21

RESULT:
1. -93.6
2. 29.1
3. 10.65
